Test: Pharmacokinetic study of Compound A in male cynomolgus monkeys
Assay type: in vivo
Details: cynomolgus monkey, plasma, iv, i.v. 5 mg/kg
value_type: half-life

INSERT INTO results (compound, value_type, experimental_result) VALUES
  ('CCN1CCN(Cc2ccc(Nc3ncc(F)c(-c4sc(NC5CCCC5)nc4C)n3)nc2)CC1 [Compound A]', 'half-life', '6.5 h');

###

Test: Solid-state stability, 14 days, HPLC
Format: physicochemical
Conditions: 25° C./60% RH
value_type: Relative purity

INSERT INTO results (compound, experimental_result) VALUES
  ('CCN1CCN(Cc2ccc(Nc3ncc(F)c(-c4sc(NC5CCCC5)nc4C)n3)nc2)CC1.O=P(O)(O)O [Compound A phosphate]', '100.0 % of initial'),
  ('CCN1CCN(Cc2ccc(Nc3ncc(F)c(-c4sc(NC5CCCC5)nc4C)n3)nc2)CC1', '100.0 % of initial'),
  ('CCN1CCN(Cc2ccc(Nc3ncc(F)c(-c4sc(NC5CCCC5)nc4C)n3)nc2)CC1.Cl [Compound A hydrochloride]', '99.9 % of initial'),
  ('CCN1CCN(Cc2ccc(Nc3ncc(F)c(-c4sc(NC5CCCC5)nc4C)n3)nc2)CC1.O=C(O)CCC(=O)O [Compound A succinate]', '100.0 % of initial'),
  ('CCN1CCN(Cc2ccc(Nc3ncc(F)c(-c4sc(NC5CCCC5)nc4C)n3)nc2)CC1.CS(=O)(=O)O [Compound A mesylate]', '100.1 % of initial');

###

Experiment: Pharmacokinetic study of Compound A succinate in cynomolgus monkeys
Type: in vivo
Conditions: cynomolgus monkey, plasma, iv; i.v. 2 mg/kg, male cynomolgus monkeys; read-out: Vz
value_type: Vd (L/kg)

INSERT INTO results (compound, unit_of_measurement, experimental_result) VALUES
  ('CCN1CCN(Cc2ccc(Nc3ncc(F)c(-c4sc(NC5CCCC5)nc4C)n3)nc2)CC1.O=C(O)CCC(=O)O [Compound A succinate]', 'L/kg', 17.7);

###

Experiment: Pharmacokinetic study of Compound A in male cynomolgus monkeys
Type: in vivo
Settings: cynomolgus monkey, plasma, iv, i.v. 5 mg/kg
value_type: AUC(0-inf) (ng·h/mL)

INSERT INTO results (structure_smiles, experimental_result) VALUES
  ('CCN1CCN(Cc2ccc(Nc3ncc(F)c(-c4sc(NC5CCCC5)nc4C)n3)nc2)CC1', 4560);

###

Assay: Dynamic solubility in water and FaSSIF at 37° C.
Format: physicochemical
Details: thermodynamic from solid, FaSSIF, 1 hour, read-out: S: Solubility
value_type: solubility at 1 h (µg/mL)

INSERT INTO assay_data (compound, experimental_result) VALUES
  ('CCN1CCN(Cc2ccc(Nc3ncc(F)c(-c4sc(NC5CCCC5)nc4C)n3)nc2)CC1', 270),
  ('CCN1CCN(Cc2ccc(Nc3ncc(F)c(-c4sc(NC5CCCC5)nc4C)n3)nc2)CC1.O=C(O)CCC(=O)O [Compound A succinate]', 8200);

###

Experiment: Pharmacokinetic study of Compound A in male cynomolgus monkeys
Type: in vivo
Conditions: cynomolgus monkey, plasma, po, i.g. 50 mg/kg
value_type: half-life (min)

INSERT INTO measurements (structure_smiles, experimental_result) VALUES
  ('CCN1CCN(Cc2ccc(Nc3ncc(F)c(-c4sc(NC5CCCC5)nc4C)n3)nc2)CC1', 498);

###

Assay: Pharmacokinetic study of Compound A succinate in cynomolgus monkeys
Type: in vivo
Conditions: cynomolgus monkey, plasma, iv; i.v. 2 mg/kg, male cynomolgus monkeys
value_type: AUC(0-inf)

INSERT INTO results (molecule, value_type, experimental_result) VALUES
  ('CCN1CCN(Cc2ccc(Nc3ncc(F)c(-c4sc(NC5CCCC5)nc4C)n3)nc2)CC1.O=C(O)CCC(=O)O [Compound A succinate]', 'AUC(0-inf)', '872 ng·h/mL');

###

Assay: Pharmacokinetic study of Compound A succinate in cynomolgus monkeys
Assay type: in vivo
Conditions: cynomolgus monkey, plasma, po; i.g. 24 mg/kg, male cynomolgus monkeys
Procedure: In a separate study, four cynomolgus monkeys were divided into two groups (n=2 per group), and given Compound A succinate at 2 mg/kg by i.v. and 24 mg/kg by i.g., respectively. The plasma samples were collected, analyzed and PK parameters were calculated as above.
value_type: half-life (h)

INSERT INTO assay_data (compound, value_type, experimental_result) VALUES
  ('CCN1CCN(Cc2ccc(Nc3ncc(F)c(-c4sc(NC5CCCC5)nc4C)n3)nc2)CC1.O=C(O)CCC(=O)O [Compound A succinate]', 'half-life', 6);

###

Assay: Pharmacokinetic study of Compound A succinate in cynomolgus monkeys
Format: in vivo
Settings: cynomolgus monkey, plasma, iv; i.v. 2 mg/kg, male cynomolgus monkeys
value_type: Cmax

INSERT INTO measurements (molecule, value_type, experimental_result) VALUES
  ('CCN1CCN(Cc2ccc(Nc3ncc(F)c(-c4sc(NC5CCCC5)nc4C)n3)nc2)CC1.O=C(O)CCC(=O)O [Compound A succinate]', 'Cmax', '0.24 µg/mL');

###

# maps each entry to its Purity
Experiment: Solid-state stability, 14 days, HPLC
Assay type: physicochemical
Details: 40° C./75% RH
value_type: Purity (area %)

INSERT INTO assay_data (compound, value_type, experimental_result) VALUES
  ('CCN1CCN(Cc2ccc(Nc3ncc(F)c(-c4sc(NC5CCCC5)nc4C)n3)nc2)CC1', 'Purity', 97.6),
  ('CCN1CCN(Cc2ccc(Nc3ncc(F)c(-c4sc(NC5CCCC5)nc4C)n3)nc2)CC1.CS(=O)(=O)O [Compound A mesylate]', 'Purity', 97.5),
  ('CCN1CCN(Cc2ccc(Nc3ncc(F)c(-c4sc(NC5CCCC5)nc4C)n3)nc2)CC1.O=C(O)CCC(=O)O [Compound A succinate]', 'Purity', 97.9),
  ('CCN1CCN(Cc2ccc(Nc3ncc(F)c(-c4sc(NC5CCCC5)nc4C)n3)nc2)CC1.Cl [Compound A hydrochloride]', 'Purity', 97.7),
  ('CCN1CCN(Cc2ccc(Nc3ncc(F)c(-c4sc(NC5CCCC5)nc4C)n3)nc2)CC1.O=P(O)(O)O [Compound A phosphate]', 'Purity', 98.2);

###

Assay: Pharmacokinetic study of Compound A in male cynomolgus monkeys
Type: in vivo
Details: cynomolgus monkey, plasma, po, i.g. 50 mg/kg
value_type: Cmax (ng/mL)

INSERT INTO results (compound, experimental_result) VALUES
  ('CCN1CCN(Cc2ccc(Nc3ncc(F)c(-c4sc(NC5CCCC5)nc4C)n3)nc2)CC1 [Compound A]', 643);

###

Assay: Pharmacokinetic study of Compound A succinate in cynomolgus monkeys
Type: in vivo
Conditions: cynomolgus monkey, plasma, iv; i.v. 2 mg/kg, male cynomolgus monkeys
value_type: clearance (mL/min/kg)

INSERT INTO assay_data (molecule, unit_of_measurement, experimental_result) VALUES
  ('CCN1CCN(Cc2ccc(Nc3ncc(F)c(-c4sc(NC5CCCC5)nc4C)n3)nc2)CC1.O=C(O)CCC(=O)O [Compound A succinate]', 'mL/min/kg', 39.1);

###

Test: Solid-state stability, 14 days, HPLC
Assay type: physicochemical
Settings: 25° C./60% RH
value_type: Purity

INSERT INTO results (compound, experimental_result) VALUES
  ('CCN1CCN(Cc2ccc(Nc3ncc(F)c(-c4sc(NC5CCCC5)nc4C)n3)nc2)CC1.Cl [Compound A hydrochloride]', '97.6 area %'),
  ('CCN1CCN(Cc2ccc(Nc3ncc(F)c(-c4sc(NC5CCCC5)nc4C)n3)nc2)CC1.O=C(O)CCC(=O)O [Compound A succinate]', '97.9 area %'),
  ('CCN1CCN(Cc2ccc(Nc3ncc(F)c(-c4sc(NC5CCCC5)nc4C)n3)nc2)CC1.CS(=O)(=O)O [Compound A mesylate]', '97.6 area %'),
  ('CCN1CCN(Cc2ccc(Nc3ncc(F)c(-c4sc(NC5CCCC5)nc4C)n3)nc2)CC1.O=P(O)(O)O [Compound A phosphate]', '98.3 area %'),
  ('CCN1CCN(Cc2ccc(Nc3ncc(F)c(-c4sc(NC5CCCC5)nc4C)n3)nc2)CC1', '97.6 area %');

###

Test: Pharmacokinetic study of Compound A in male cynomolgus monkeys
Type: in vivo
Conditions: cynomolgus monkey, plasma, iv, i.v. 5 mg/kg
value_type: AUC(0-t) (ng·h/mL)

INSERT INTO measurements (structure_smiles, value_type, experimental_result) VALUES
  ('CCN1CCN(Cc2ccc(Nc3ncc(F)c(-c4sc(NC5CCCC5)nc4C)n3)nc2)CC1', 'AUC(0-t)', 4190);

###

# maps each entry to its solubility at 4 h
Test: Dynamic solubility in water and FaSSIF at 37° C.
Type: physicochemical
Details: thermodynamic from solid, FaSSIF, 4 hours, read-out: S: Solubility
value_type: solubility at 4 h (µg/mL)

INSERT INTO measurements (compound, experimental_result) VALUES
  ('CCN1CCN(Cc2ccc(Nc3ncc(F)c(-c4sc(NC5CCCC5)nc4C)n3)nc2)CC1 [Compound A]', 240),
  ('CCN1CCN(Cc2ccc(Nc3ncc(F)c(-c4sc(NC5CCCC5)nc4C)n3)nc2)CC1.O=C(O)CCC(=O)O [Compound A succinate]', 8100);
